target: CYP2C8 (Homo sapiens (Human), UniProt P10632)
Sequence (P10632 whole entry): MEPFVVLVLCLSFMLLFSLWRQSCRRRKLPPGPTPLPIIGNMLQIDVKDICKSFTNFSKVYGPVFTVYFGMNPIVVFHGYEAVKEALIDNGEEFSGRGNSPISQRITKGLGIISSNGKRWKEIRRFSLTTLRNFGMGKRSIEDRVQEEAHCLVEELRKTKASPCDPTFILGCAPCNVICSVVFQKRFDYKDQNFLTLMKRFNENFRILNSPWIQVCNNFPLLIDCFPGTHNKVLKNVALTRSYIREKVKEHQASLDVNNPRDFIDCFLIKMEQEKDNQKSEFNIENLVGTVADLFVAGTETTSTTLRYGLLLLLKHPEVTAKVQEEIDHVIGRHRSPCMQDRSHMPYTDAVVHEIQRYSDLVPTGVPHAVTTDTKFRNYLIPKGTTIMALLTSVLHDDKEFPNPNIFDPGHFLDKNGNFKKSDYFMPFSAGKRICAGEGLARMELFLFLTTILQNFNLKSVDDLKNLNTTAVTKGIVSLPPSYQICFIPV
pIC50: −log10 of the molar value.
assay.metric: pIC50

{"compound": "COc1ccc(F)c(-n2ncc3c2CCC[C@H]3NC(=O)c2ncn3c2CCCC3)c1Cl [Compound C, reference compound]", "assay.result": "< 4.52"}
{"compound": "COc1ccc(F)c(-n2ncc3c2COC[C@H]3NC(=O)c2ncn3c2CCCC3)c1Cl (single isomer, unassigned)", "assay.result": "< 4.52"}

###

assay: in vitro; settings: both, human, pooled liver microsomes
Readings of half-life at 1 μM for the listed molecules

{"molecule": "COc1ccc(F)c(-n2ncc3c2CCC[C@H]3NC(=O)c2ncn3c2CCCC3)c1Cl [Compound C, reference compound]", "half-life at 1 μM": "102 min"}
{"molecule": "Cc1ccc(Cl)c(-n2ncc3c2COC[C@H]3NC(=O)c2ncn3c2CCCC3)c1", "half-life at 1 μM": "> 365 min"}
{"molecule": "COc1ccc(F)c(-n2ncc3c2COC[C@H]3NC(=O)c2ncn3c2CCCC3)c1Cl (single isomer, unassigned)", "half-life at 1 μM": "> 365 min"}
{"molecule": "O=C(N[C@@H]1COCc2c1cnn2-c1c(Cl)cccc1Cl)c1ncn2c1CCCC2 (single isomer, unassigned)", "half-life at 1 μM": "> 365 min"}
{"molecule": "O=C(N[C@@H]1COCc2c1cnn2-c1c(F)cccc1Cl)c1ncc2n1CCCC2", "half-life at 1 μM": "133 min"}
{"molecule": "O=C(N[C@@H]1COCc2c1cnn2-c1c(F)cccc1Cl)c1ncn2c1CCCC2 (single isomer, unassigned)", "half-life at 1 μM": "> 365 min"}
{"molecule": "O=C(N[C@@H]1COCc2c1cnn2-c1ccccc1F)c1ncn2c1CCCC2 (single isomer, unassigned)", "half-life at 1 μM": "> 365 min"}
{"molecule": "O=C(N[C@@H]1COCc2c1cnn2-c1c(F)cccc1F)c1ncn2c1CCCC2", "half-life at 1 μM": "> 365 min"}

###

Readings of half-life at 1 μM for the listed compounds
assay: in vitro; settings: both, human, pooled liver microsomes

{"compound": "O=C(N[C@H]1COCc2c1cnn2-c1c(F)cccc1Cl)c1ncn2c1CCCC2 (single isomer, unassigned)", "inequality.operator": ">", "half-life at 1 μM / h": 6.08}
{"compound": "Cc1cccc(F)c1-n1ncc2c1COC[C@H]2NC(=O)c1ncn2c1CCCC2", "inequality.operator": "=", "half-life at 1 μM / h": 4.58}
{"compound": "Cc1cnc(C(=O)N[C@@H]2COCc3c2cnn3-c2ccccc2F)cc1C", "inequality.operator": "=", "half-life at 1 μM / h": 4.57}
{"compound": "Cc1ccccc1-n1ncc2c1COC[C@H]2NC(=O)c1ncn2c1CCCC2", "inequality.operator": "=", "half-life at 1 μM / h": 4.52}
{"compound": "O=C(N[C@@H]1COCc2c1cnn2-c1ccccc1F)c1n[nH]c2c1CCCC2", "inequality.operator": "=", "half-life at 1 μM / h": 3.93}

###

test: in vitro; details: both, human, pooled liver microsomes
Readings of half-life at 1 μM for the listed molecules
assay.metric: half-life at 1 μM

{"molecule": "COc1cccc(C)c1-n1ncc2c1COC[C@H]2NC(=O)c1ncn2c1CCCC2", "assay.metric": "half-life at 1 μM", "assay.result": "> 6.08 h"}
{"molecule": "Cc1cnc(C(=O)N[C@@H]2COCc3c2cnn3-c2c(F)cccc2Cl)cc1C", "assay.metric": "half-life at 1 μM", "assay.result": "6.08 h"}
{"molecule": "CCc1c(C(=O)N[C@@H]2COCc3c2cnn3-c2ccccc2F)ncn1C", "assay.metric": "half-life at 1 μM", "assay.result": "> 6.08 h"}
{"molecule": "O=C(N[C@@H]1COCc2c1cnn2-c1ccccc1F)c1ncc2n1CCCC2 (single isomer, unassigned)", "assay.metric": "half-life at 1 μM", "assay.result": "4.75 h"}
{"molecule": "O=C(N[C@@H]1COCc2c1cnn2-c1c(F)cccc1Cl)c1n[nH]c2c1CCCC2", "assay.metric": "half-life at 1 μM", "assay.result": "> 6.08 h"}
{"molecule": "COc1ccccc1-n1ncc2c1COC[C@H]2NC(=O)c1ncn2c1CCCC2", "assay.metric": "half-life at 1 μM", "assay.result": "> 6.08 h"}
{"molecule": "O=C(N[C@@H]1COCc2c1cnn2-c1ccccc1Cl)c1ncn2c1CCCC2", "assay.metric": "half-life at 1 μM", "assay.result": "5.93 h"}
{"molecule": "O=C(N[C@@H]1COCc2c1cnn2-c1ccccc1F)c1noc2c1CCCC2", "assay.metric": "half-life at 1 μM", "assay.result": "> 6.08 h"}
{"molecule": "O=C(N[C@@H]1COCc2c1cnn2-c1ccccc1C(F)(F)F)c1ncn2c1CCCC2", "assay.metric": "half-life at 1 μM", "assay.result": "> 6.08 h"}

###

experiment: in vitro; conditions: human, hepatocytes, 2 h, 1 μM

{"compound": "O=C(N[C@@H]1COCc2c1cnn2-c1ccccc1C(F)(F)F)c1ncn2c1CCCC2", "display.unit": "%", "hHEPs % remaining": 100}
{"compound": "O=C(N[C@@H]1COCc2c1cnn2-c1ccccc1F)c1ncc2n1CCCC2 (single isomer, unassigned)", "display.unit": "%", "hHEPs % remaining": 87}
{"compound": "Cc1ccccc1-n1ncc2c1COC[C@H]2NC(=O)c1ncn2c1CCCC2", "display.unit": "%", "hHEPs % remaining": 100}
{"compound": "O=C(N[C@@H]1COCc2c1cnn2-c1ccccc1F)c1ncn2c1CCCC2 (single isomer, unassigned)", "display.unit": "%", "hHEPs % remaining": 87}

###

Readings of hHEPs % remaining for the listed compounds
assay: in vitro; settings: % remaining at 120 min; 1 μM

{"compound": "O=C(N[C@@H]1COCc2c1cnn2-c1c(Cl)cccc1Cl)c1ncn2c1CCCC2 (single isomer, unassigned)", "display.unit": "%", "hHEPs % remaining": 95}
{"compound": "O=C(N[C@@H]1COCc2c1cnn2-c1c(F)cccc1Cl)c1n[nH]c2c1CCCC2", "display.unit": "%", "hHEPs % remaining": 89}
{"compound": "COc1ccccc1-n1ncc2c1COC[C@H]2NC(=O)c1ncn2c1CCCC2", "display.unit": "%", "hHEPs % remaining": 100}
{"compound": "Cc1cnc(C(=O)N[C@@H]2COCc3c2cnn3-c2ccccc2F)cc1C", "display.unit": "%", "hHEPs % remaining": 72}

###

assay: in vitro; details: % remaining at 120 min; 1 μM

{"compound": "CCc1c(C(=O)N[C@@H]2COCc3c2cnn3-c2ccccc2F)ncn1C", "hHEPs % remaining (%)": 100}
{"compound": "O=C(N[C@@H]1COCc2c1cnn2-c1c(F)cccc1F)c1ncn2c1CCCC2", "hHEPs % remaining (%)": 100}
{"compound": "O=C(N[C@@H]1COCc2c1cnn2-c1ccccc1F)c1noc2c1CCCC2", "hHEPs % remaining (%)": 93}
{"compound": "Cc1cnc(C(=O)N[C@@H]2COCc3c2cnn3-c2c(F)cccc2Cl)cc1C", "hHEPs % remaining (%)": 82}
{"compound": "Cc1cccc(F)c1-n1ncc2c1COC[C@H]2NC(=O)c1ncn2c1CCCC2", "hHEPs % remaining (%)": 100}
{"compound": "O=C(N[C@@H]1COCc2c1cnn2-c1c(F)cccc1Cl)c1ncn2c1CCCC2 (single isomer, unassigned)", "hHEPs % remaining (%)": 90}
{"compound": "COc1ccc(F)c(-n2ncc3c2COC[C@H]3NC(=O)c2ncn3c2CCCC3)c1Cl (single isomer, unassigned)", "hHEPs % remaining (%)": 87}

###

molecular target: CYP2C19 (Homo sapiens (Human))
Sequence (P33261 whole entry): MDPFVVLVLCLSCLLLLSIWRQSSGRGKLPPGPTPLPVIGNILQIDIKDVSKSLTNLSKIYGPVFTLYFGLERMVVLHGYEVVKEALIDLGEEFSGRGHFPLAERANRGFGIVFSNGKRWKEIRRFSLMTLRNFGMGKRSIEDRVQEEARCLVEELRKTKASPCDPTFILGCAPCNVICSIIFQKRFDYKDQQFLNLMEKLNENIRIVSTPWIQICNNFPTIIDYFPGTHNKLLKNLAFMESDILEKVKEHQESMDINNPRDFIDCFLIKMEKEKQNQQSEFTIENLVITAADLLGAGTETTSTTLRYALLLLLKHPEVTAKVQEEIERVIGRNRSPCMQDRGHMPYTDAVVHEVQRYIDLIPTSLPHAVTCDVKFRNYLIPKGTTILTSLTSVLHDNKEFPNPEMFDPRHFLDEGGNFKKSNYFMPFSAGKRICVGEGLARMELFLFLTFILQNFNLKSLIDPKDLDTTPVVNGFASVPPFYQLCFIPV
pIC50: −log10 of the molar value.

{"compound": "COc1ccc(F)c(-n2ncc3c2CCC[C@H]3NC(=O)c2ncn3c2CCCC3)c1Cl [Compound C, reference compound]", "inequality.operator": "=", "pIC50": 4.74}
{"compound": "COc1ccc(F)c(-n2ncc3c2COC[C@H]3NC(=O)c2ncn3c2CCCC3)c1Cl (single isomer, unassigned)", "inequality.operator": "<", "pIC50": 4.52}

###

system: MOLM-13 cells; assay: MOLM-13 cell viability (Assay B), Cell Titer-Glo; assay type: cell-based; conditions: Homo sapiens, MOLM-13; 72 hours; bins ≥10 nM-<100 nM and <10 nM; read-out: IC50 MOLM13 inhibition activity
pIC50: −log10 of the molar value.
Readings of pIC50 for the listed compounds

{"compound": "CCc1c(C(=O)N[C@@H]2COCc3c2cnn3-c2cccc(C)c2Cl)ncn1C [Ex-15]", "tested.on": "MOLM-13 cells", "pIC50": "> 8.00"}
{"compound": "CCc1c(C(=O)N[C@@H]2COCc3c2cnn3-c2c(C)cccc2Cl)ncn1C [Ex-35]", "tested.on": "MOLM-13 cells", "pIC50": "> 8.00"}
{"compound": "Cc1cccc(Cl)c1-n1ncc2c1COC[C@H]2NC(=O)c1ncc2n1CCCC2 [Ex-36]", "tested.on": "MOLM-13 cells", "pIC50": "> 8.00"}
{"compound": "Cc1ccc(Cl)c(-n2ncc3c2COC[C@H]3NC(=O)c2ncn3c2CCCC3)c1 [Ex-53]", "tested.on": "MOLM-13 cells", "pIC50": "7.00 to 8.00"}
{"compound": "Cc1cccc(F)c1-n1ncc2c1COC[C@H]2NC(=O)c1ncn2c1CCCC2 [Ex-58]", "tested.on": "MOLM-13 cells", "pIC50": "7.00 to 8.00"}
